subject_of_test: T1, human prolactin receptor (PRLR) (human, UniProt P16471 25-622)
T1 sequence: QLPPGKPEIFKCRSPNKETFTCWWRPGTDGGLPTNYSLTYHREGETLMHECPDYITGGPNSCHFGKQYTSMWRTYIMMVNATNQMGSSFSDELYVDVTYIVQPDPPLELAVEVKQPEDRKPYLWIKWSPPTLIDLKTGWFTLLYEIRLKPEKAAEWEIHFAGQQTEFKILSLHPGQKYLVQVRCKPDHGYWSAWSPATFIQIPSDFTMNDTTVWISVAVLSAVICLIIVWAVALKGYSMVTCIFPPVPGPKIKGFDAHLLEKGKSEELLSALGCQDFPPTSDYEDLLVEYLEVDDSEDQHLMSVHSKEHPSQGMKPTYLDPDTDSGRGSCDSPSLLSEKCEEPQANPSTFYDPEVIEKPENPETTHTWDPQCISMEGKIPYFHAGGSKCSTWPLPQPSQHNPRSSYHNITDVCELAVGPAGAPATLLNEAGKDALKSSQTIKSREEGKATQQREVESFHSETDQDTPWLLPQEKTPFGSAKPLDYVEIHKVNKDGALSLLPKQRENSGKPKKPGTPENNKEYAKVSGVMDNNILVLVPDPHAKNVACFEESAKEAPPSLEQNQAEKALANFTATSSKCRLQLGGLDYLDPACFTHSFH
test_summary: cell-based or functional assay
Item-by-item account of IC50, cell viability, MCF7/ATCC cells

[
  {
    "binder": "H1H6953N-DM1 (antibody, human IgG1, V domains shown, DM1 conjugated through SMCC linker; attachment residues not stated) VH: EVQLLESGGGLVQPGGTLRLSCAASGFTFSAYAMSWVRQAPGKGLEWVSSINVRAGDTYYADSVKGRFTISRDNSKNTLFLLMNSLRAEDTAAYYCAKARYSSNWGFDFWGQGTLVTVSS VL: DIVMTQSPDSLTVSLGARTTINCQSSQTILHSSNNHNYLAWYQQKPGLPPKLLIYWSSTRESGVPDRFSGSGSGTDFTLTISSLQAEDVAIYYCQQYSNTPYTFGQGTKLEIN",
    "IC50, cell viability, MCF7/ATCC cells, nM": 80
  },
  {
    "binder": "H1H6953N-mc-VC-PAB-MMAE (antibody, human IgG1, V domains shown, MMAE conjugated through cleavable mc-vc-PAB linker; attachment residues not stated) VH: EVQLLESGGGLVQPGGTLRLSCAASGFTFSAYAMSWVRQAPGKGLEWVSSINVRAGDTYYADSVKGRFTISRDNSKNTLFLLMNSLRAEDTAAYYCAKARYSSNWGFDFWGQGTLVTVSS VL: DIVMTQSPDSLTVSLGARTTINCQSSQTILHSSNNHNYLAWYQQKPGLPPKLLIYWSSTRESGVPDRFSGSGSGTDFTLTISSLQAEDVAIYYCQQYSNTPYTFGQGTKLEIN",
    "IC50, cell viability, MCF7/ATCC cells, nM": 150
  },
  {
    "binder": "H1H6765P-DM1 (antibody, human IgG1, V domains shown, DM1 conjugated through SMCC linker; attachment residues not stated) VH: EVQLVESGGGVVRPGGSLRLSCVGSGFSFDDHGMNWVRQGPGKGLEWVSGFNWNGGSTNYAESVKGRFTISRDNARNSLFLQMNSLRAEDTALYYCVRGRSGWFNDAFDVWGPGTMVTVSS VL: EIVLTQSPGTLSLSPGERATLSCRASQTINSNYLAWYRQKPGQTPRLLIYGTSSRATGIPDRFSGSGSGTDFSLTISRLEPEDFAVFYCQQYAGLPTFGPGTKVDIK",
    "IC50, cell viability, MCF7/ATCC cells, nM": 90
  },
  {
    "binder": "H1H6765P-mc-VC-PAB-MMAE (antibody, human IgG1, V domains shown, MMAE conjugated through cleavable mc-vc-PAB linker; attachment residues not stated) VH: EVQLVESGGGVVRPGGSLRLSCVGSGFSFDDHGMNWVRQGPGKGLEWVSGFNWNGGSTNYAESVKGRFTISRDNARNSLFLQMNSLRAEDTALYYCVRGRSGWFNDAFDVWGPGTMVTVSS VL: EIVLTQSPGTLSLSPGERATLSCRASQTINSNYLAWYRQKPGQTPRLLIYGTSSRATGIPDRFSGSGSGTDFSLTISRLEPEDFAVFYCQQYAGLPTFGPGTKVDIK",
    "IC50, cell viability, MCF7/ATCC cells, nM": 150
  },
  {
    "binder": "H1H6958N2-DM1 (antibody, human IgG1, V domains shown, DM1 conjugated through SMCC linker; attachment residues not stated) VH: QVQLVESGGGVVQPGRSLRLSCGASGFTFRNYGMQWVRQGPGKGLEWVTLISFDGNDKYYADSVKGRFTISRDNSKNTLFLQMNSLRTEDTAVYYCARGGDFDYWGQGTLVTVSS VL: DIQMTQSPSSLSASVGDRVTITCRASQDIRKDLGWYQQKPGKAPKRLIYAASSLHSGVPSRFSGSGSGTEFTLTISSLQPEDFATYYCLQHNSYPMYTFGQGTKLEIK",
    "IC50, cell viability, MCF7/ATCC cells, nM": 90
  },
  {
    "binder": "H1H6958N2-mc-VC-PAB-MMAE (antibody, human IgG1, V domains shown, MMAE conjugated through cleavable mc-vc-PAB linker; attachment residues not stated) VH: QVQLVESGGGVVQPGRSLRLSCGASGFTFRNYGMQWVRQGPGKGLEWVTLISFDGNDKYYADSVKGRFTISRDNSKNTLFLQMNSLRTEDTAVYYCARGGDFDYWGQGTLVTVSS VL: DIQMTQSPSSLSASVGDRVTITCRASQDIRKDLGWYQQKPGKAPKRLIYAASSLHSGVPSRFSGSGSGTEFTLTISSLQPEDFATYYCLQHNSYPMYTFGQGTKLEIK",
    "IC50, cell viability, MCF7/ATCC cells, nM": 150
  }
]
